Target under test: OATP1A2 (Homo sapiens, UniProt P46721)
Sequence (P46721 whole entry): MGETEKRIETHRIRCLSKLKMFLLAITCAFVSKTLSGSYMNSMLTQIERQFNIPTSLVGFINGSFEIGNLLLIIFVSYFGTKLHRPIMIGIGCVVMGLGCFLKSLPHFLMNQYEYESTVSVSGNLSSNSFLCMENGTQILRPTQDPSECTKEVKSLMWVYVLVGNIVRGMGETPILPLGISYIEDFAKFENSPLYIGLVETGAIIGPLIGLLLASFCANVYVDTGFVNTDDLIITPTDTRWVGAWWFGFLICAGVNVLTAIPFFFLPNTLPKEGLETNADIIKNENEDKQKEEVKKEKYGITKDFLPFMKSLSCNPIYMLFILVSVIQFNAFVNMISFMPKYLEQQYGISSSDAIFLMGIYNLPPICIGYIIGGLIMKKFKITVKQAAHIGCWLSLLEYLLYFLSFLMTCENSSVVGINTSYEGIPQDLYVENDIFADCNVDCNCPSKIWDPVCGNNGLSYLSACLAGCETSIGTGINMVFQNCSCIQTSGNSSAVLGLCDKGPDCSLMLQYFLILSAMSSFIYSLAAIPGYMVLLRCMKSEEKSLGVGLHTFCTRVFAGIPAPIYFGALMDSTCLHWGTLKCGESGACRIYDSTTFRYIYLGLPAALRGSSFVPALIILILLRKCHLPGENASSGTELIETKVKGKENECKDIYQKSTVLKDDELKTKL
Assay text: Cellular uptake in HEK293 cells assessed as human OATP1A2-mediated drug uptake at 0.05 uM after 1 min by Eadie-Hofstee plot analysis
Format: ADME, cell-based
Conditions used: HEK293 cells expressing human OATP1A2
Experimental endpoint: Km at 1 min (µM)
Numbers only, in µM.

INPUT: Consider the molecule C[C@]12CC[C@@H]3c4ccc(OS(=O)(=O)O)cc4CC[C@H]3[C@@H]1CCC2=O [ESTRONE SULFURIC ACID] and give its measured Km at 1 min.
OUTPUT: 16.1
